Cited source for all entries: patent US20240409530A1

- test-system: human KHK in HepG2 Cells (Homo sapiens (Human), UniProt P50053)
- Sequence (P50053 whole entry): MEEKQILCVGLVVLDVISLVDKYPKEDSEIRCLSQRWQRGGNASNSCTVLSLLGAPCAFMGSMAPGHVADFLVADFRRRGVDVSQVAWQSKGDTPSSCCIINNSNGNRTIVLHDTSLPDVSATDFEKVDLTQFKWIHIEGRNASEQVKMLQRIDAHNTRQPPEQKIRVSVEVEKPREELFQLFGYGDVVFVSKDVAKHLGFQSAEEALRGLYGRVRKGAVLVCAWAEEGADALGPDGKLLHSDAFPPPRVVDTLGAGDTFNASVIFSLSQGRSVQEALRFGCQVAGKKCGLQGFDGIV
- assay-text: Cell-based potency assay (HepG2 assay), F1P by LC/MS
- reported-conditions: fructose 20 mM, 20 min, F1P produced
measure: IC50 (nM)

O=C(Cn1cc(-c2cc(C(F)(F)F)nc(N3CC[C@@H]3C(F)(F)F)n2)cn1)N1CCNCC1 = 48

[1] O=C(Cn1cc(-c2nc(N3CC[C@@H]3C(F)F)nc(C(F)(F)F)c2Cl)cn1)N1CCNCC1
[2] Cc1c(-c2cnn(C3CNC3)c2)nc(N2C[C@@H](O)[C@@H]2C)nc1C(F)F
[3] COc1c(-c2cnn(C3CN(C)C3)c2)nc(N2C[C@@H](O)[C@@H]2C)nc1C(F)F
// query Please order the records by their reported IC50, lowest number first. Your task in answering is to list the labels in the requested order.
// result 2, 3, 1
